Tested on: MDA-MB-231 breast
Test: NCI-60 one-dose screen, 48 h (100 = growth as untreated, 0 = no growth, -100 = all killed)
Study Conditions: 10 µM unless noted
About 83,000 compounds went through this panel and 20% of them were active in at least one assay; those are over-represented in the sample as a whole.
Measured growth, listed per entry for reference.
Quick reminder: number only, in %, skip the unit.

Reference set, count: 2
{"Compound": "CCc1cccc(C)c1NC(=O)c1sc2nc3c(cc2c1N)CCCCC3", "growth (%)": 35.6}
{"Compound": "Cc1cc(C)c(O)c(C(=O)CC(Br)C(=O)O)c1 (stereo not given)", "growth (%)": 121}

q: Record request: growth value, item O=C(Nc1ccccc1Cl)c1c[nH]c(=O)c(-c2ccc(N3CCCOC4(CC4)C3)cc2)c1
a: 77.7

q: Record request: growth value, item C=CCn1c(SCC(=O)Nc2ccc(/C(C)=N\O)cc2)nnc1-c1cc(-c2ccc(OC)cc2)nc2ccccc12
a: 33.7

q: Record request: growth value, item COc1ccc2c(-c3ccc(F)cc3)c(C#N)c(=NC(C)=O)oc2c1
a: 54.7

q: Record request: growth value, item CCc1ccc(C2=C/C(=C/c3ccc(Cl)cc3)C(=O)N2CCc2ccc(S(N)(=O)=O)cc2)cc1
a: 43.8

q: Record request: growth value, item Cc1[nH]n(C(=O)c2ccncc2)c(=O)c1N=Nc1ccc(S(=O)(=O)Nc2ccncn2)cc1
a: 103

* * *

System: NCI-H23 lung
Test: NCI-60 one-dose screen, 48 h
Study Conditions: 10 µM unless noted
About 83,000 compounds went through this panel and 20% of them were active in at least one assay; those are over-represented in the sample as a whole. Activity calls are given as the source filed them. The calls were made as follows: active = growth percent below 10; inactive = the rest.
The reply should name one outcome from TRUE (active), FALSE (inactive)

Please review the entries below; each comes with its answer.
{"Compound": "COc1cc(/C=C/C(=O)c2c(C)[n+]([O-])c3ccccc3[n+]2[O-])ccc1O", "Classification": "FALSE"}
{"Compound": "O=C(Nc1ccc(-n2ccc3c(NC(=O)c4ccccc4)ncnc32)cc1)Nc1cccc(Cl)c1Cl", "Classification": "TRUE"}
{"Compound": "COCCNC(C(=O)c1ccccc1)c1ccccc1 (stereo not given)", "Classification": "FALSE"}
{"Compound": "CC1=C2C(=C[C@@](C)(CO)[C@@H]2OC(=O)N(C)CCN(C)C(=O)OC(C)(C)C)C(=O)[C@](C)(O)C12CC2", "Classification": "FALSE"}
{"Compound": "COc1ccc(/C=C/C(=O)c2ccc(NC(=O)CSc3nnc(-c4cc(OC)c(OC)c(OC)c4)o3)cc2)cc1", "Classification": "TRUE"}

q: What classification did NS(=O)(=O)c1ccc(Nc2nc(O)c(/C=C3\C=Nc4ccccc43)s2)cc1 end up with in this test?
a: FALSE

q: What classification did CCOc1ccc(NC2=C(Cl)C(=O)c3ccccc3C2=O)cc1 end up with in this test?
a: FALSE

q: What classification did COc1cc(C(=O)NNC(=O)c2ccccc2O)cc(OC)c1OC end up with in this test?
a: FALSE

q: What classification did O=C(CSc1nnc(-c2ccccc2)o1)Nc1ccc(C(=O)/C=C/c2ccccc2)cc1 end up with in this test?
a: FALSE

q: What classification did NC(CCCC(N)C(=O)c1ccccc1)C(=O)O (stereo not given) end up with in this test?
a: FALSE

Ref: PubChem BioAssay (NCI)
